Data credit: the supplement of paper PMC10600219

test system: NCI-H2228 alectinib-DTP; assay: cell viability relative to vehicle (fraction of vehicle); higher = less growth inhibition; conditions: 100 nM; treatment time 6 days
Structures can show the parent of a compound that is named as a salt. The full ranking holds about 2,800 compounds; the median of “cell viability relative to vehicle” is about 0.98, and the lowest 2% start at about 0.45. Shown is part of a subset that was picked to be rich in the lowest values.
// classify: if (cell viability < 1) MET else NOT MET

compound	system	answer.label
CCO[C@H]1O[C@@H]2O[C@@]3(C)CC[C@H]4[C@H](C)CC[C@@H]([C@H]1C)[C@@]24OO3	NCI-H2228 alectinib-DTP	MET
CC(=O)Nc1ccc(OC[C@](C)(O)C(=O)Nc2ccc([N+](=O)[O-])c(C(F)(F)F)c2)cc1	NCI-H2228 alectinib-DTP	MET
COc1ccc2c(c[n+](C)c3c4cc5c(cc4ccc23)OCO5)c1OC	NCI-H2228 alectinib-DTP	NOT MET
Clc1ccc([C@]23CNC[C@H]2C3)cc1Cl [Amitifadine hydrochloride]	NCI-H2228 alectinib-DTP	NOT MET
C[C@]12CC[C@H](O)C[C@@H]1CC[C@@H]1[C@@H]2CC[C@]2(C)C(=O)CC[C@@H]12 [Epiandrosterone]	NCI-H2228 alectinib-DTP	MET
CC(=O)O[C@H]1[C@H]2O[C@]23[C@@H]2CC[C@@H]4C[C@@H](O)CC[C@]4(C)[C@H]2CC[C@]3(C)[C@H]1c1ccc(=O)oc1	NCI-H2228 alectinib-DTP	MET
COc1ccc2c(c1)[nH]c1c(C)nccc12	NCI-H2228 alectinib-DTP	MET

---

system: NCI-H2228 alectinib-DTP; test: cell viability relative to vehicle (fraction of vehicle); NCI-H2228 is an ALK-positive lung cancer line and DTP means drug-tolerant persister; higher = less growth inhibition; settings: 100 nM; treatment time 6 days
Structures can show the parent of a compound that is named as a salt. Over roughly 2,800 compounds, “cell viability relative to vehicle” has its median near 0.98; the lowest 2% begin near 0.45. Only a selection was taken, and the lowest values are over-represented in it overall.
property.measured: cell viability

compound	recorded.result
N#C[C@H](O[C@@H]1O[C@H](CO[C@@H]2O[C@H](CO)[C@@H](O)[C@H](O)[C@H]2O)[C@@H](O)[C@H](O)[C@H]1O)c1ccccc1	0.879
Nc1ncnc2c1ccn2[C@@H]1O[C@H](CO)[C@@H](O)[C@H]1O	0.389
Cc1c(C(=O)Nc2cccc(C(F)(F)F)c2)cc(-c2ccccc2)n1CCCN1CCOCC1	0.946
Cc1ccccc1-n1c(Cn2cnc3c(N)ncnc32)nc2cccc(C)c2c1=O	1.07
NC[C@H](CC(=O)O)c1ccc(Cl)cc1 [(R)-baclofen]	1.07
Cc1c(N[C@@H](c2nnc(-c3ccc(C#N)cc3)o2)[C@H](C)O)ccc(C#N)c1Cl	1.21
O=P(O)(NCCCl)NCCCl [Palifosfamide]	1.17
CC(=O)O[C@H]1CC[C@H]2[C@@H]3CCC4=CC(=O)CCC4=C3C=C[C@]12C [Trenbolone acetate]	1.15
CC(C)[C@]12O[C@H]1[C@@H]1O[C@]13[C@]1(O[C@H]1C[C@H]1C4=C(CC[C@@]13C)C(=O)OC4)[C@@H]2O [Triptolide]	0.133
C[C@H](CS(C)(=O)=O)n1ccc2c(C(F)(F)F)c(C#N)ccc21	1.09
C/C(=C\c1csc(C)n1)[C@@H]1C[C@@H]2O[C@]2(C)CCC[C@H](C)[C@H](O)[C@@H](C)C(=O)C(C)(C)[C@@H](O)CC(=O)O1	0.433
O=C(/C=C/c1ccccc1)OC[C@H]1O[C@@H](O[C@@H]2OC=C[C@H]3[C@H](O)[C@@H]4O[C@]4(CO)[C@@H]23)[C@H](O)[C@@H](O)[C@@H]1O [Picroside I]	1.06
COc1ccc2c(c1O)-c1c(OC)c(OC)cc3c1[C@H](C2)N(C)CC3 [(+)-Isocorydine hydrochloride]	0.9
